// data source = PubChem BioAssay (NCATS)

Biological target: Luciferin 4-monooxygenase (Photinus pyralis) (UniProt P08659)
Assay: Primary firefly luciferase (FLuc) qHTS assay for identification of artifact compounds. (AID 1845220); note: potency is the fitted concentration of half-maximal effect; nearly all actives have a fitted effect of over 60% in size
Details: purified firefly luciferase, luminescence, 5 min; series mostly up to 54.1 µM
Activity calls are given as the source filed them. Calls come from the whole dose curve; as a rule, active = well fitted inhibition curve with a large enough effect; inconclusive = small, poorly fitted or top-dose-only effect; inactive = flat fitted curve, though single readings scatter.
Potency values by entry

Consider the following illustrative entries.
Molecule | Measured endpoint | Data value
COc1ccc(C(=O)Nc2ncc(-c3ccc(C(=O)O)cc3)s2)cc1 | Potency | 2.69 µM (active)
N#Cc1cc(F)cc(-c2nc(-c3ccccn3)no2)c1 | Potency | 7.57 µM (active)
C=C(C)C(=O)OC1CC2(C)OC(=CC2=O)C(=C)CC2OC(=O)C(COC)C12 (stereo not drawn) | Potency | 10.5 µM (active)
Cc1ccc(C(=O)Nc2noc3ccccc23)cc1 | Potency | 0.0849 µM (active)
Cc1cc(OCc2nc(-c3ccccc3Cl)cs2)ccc1OCC(=O)O | Potency | 9.53 µM (active)
CNC(=O)c1cc(Oc2ccc3nc(N[C@@H]4CCCC[C@H]4O)sc3c2)ccn1 | Potency | 12 µM (active)
Cc1ccccc1C#Cc1ccc(CCC(=O)O)cc1 | Potency | 4.26 µM (active)
C/C=C/c1ccc2oc(-c3ccc(O)c(OC)c3)c(C)c2c1 | Potency | 26.9 µM (active)
N#CC(c1ccnc(OCc2ccc(CN3CCOCC3)cc2)n1)c1nc2ccccc2s1 (stereo not drawn) | Potency | 0.426 µM (active)
CN1c2ccccc2C(=O)N2CCC3c4ccccc4NC3C21 (stereo not drawn) | Potency | 10.5 µM (active)

// Potency lookup, molecule = CCN(CC)c1ccc2c(O)c(C=Nc3ccc(CC(=O)O)c(-c4c5c(nc6ccccc46)CCC(C(=O)NN)C5)c3)c(=O)oc2c1 (stereo not drawn) , result: 6.01 µM (active)

// Potency lookup, molecule = "O=C(Nc1ccc(Cl)cc1F)c1ccccc1O" , result: 1.2 µM (active)

// Potency lookup, molecule = "c1cn2cc(-c3ccc4cn[nH]c4c3)nc(Nc3ccc(N4CCOCC4)cc3)c2n1" , result: 0.0536 µM (active)

###

System: NIH3T3
Experiment: Cytotoxic Profiling of Annotated Libraries Using Quantitative High-Throughput Screening (AID 1296008); note: % is set by controls: 0 for no effect and ±100 for the full control effect; nearly all actives have a fitted effect of over 60% in size
Conditions: Five cell lines viability, CellTiter-Glo ATP luminescence, 48-72 h; stronger effect = lower value
Description: Cell-based phenotypic screening is a commonly used approach to discover biological pathways, novel drug targets, chemical probes and high-quality hit-to-lead molecules. […] A pintool (Kalypsys) was used to transfer 23 nL of compound solution to the 1536-well assay plates. […] Plates were left at room temperature for 10 min before imaging the ATP-coupled luminescence using a ViewLux microplate imager (PerkinElmer, Waltham, MA).
Records with an inconclusive call do not appear.
Measured endpoint: max response (%)
Answer format: numeric, % implied, no suffix.

Compound | max response [%]
C=C1C(OC2OCC(O)C(O)C2O)CC2C(C)(C)C(O)CCC2(C)C1CC/C(C)=C\CO (stereo not given) | 1.42
Cc1cccc2c1NC(=O)C2(c1ccc(O)cc1)c1ccc(O)cc1 | -15.5
CC(c1ncncc1F)C(O)(Cn1cncn1)c1ccc(F)cc1F (stereo not given) | -5.84
Cc1cc(C(=O)Nc2cccc(C(=O)Nc3cccc(C(F)(F)F)c3)c2)on1 | -17
CC1=C2C3OC(=O)C(C)C3(O)CCC2(C)CCC1O (stereo not given) | -16.2

// max response lookup, compound = "N#Cc1ccc(C(=O)N2CCC3(CC2)N=C(N)c2c(F)ccc(F)c2N3)cn1" , result: -5.13

// max response lookup, compound = CCC(=O)O[C@H]1C(C)(C)[C@H]([C@@H](O)C(=O)OC)[C@]2(C)C(=O)[C@@]1(O)[C@H]1O[C@]13C1CC(=O)O[C@@H](c4ccoc4)[C@]1(C)CCC32 (stereo not given in full) , result: -25.4

// max response lookup, compound = "O=C(NCc1cccc(O)c1)c1cc2cc(F)ccc2[nH]1" , result: -0.959
